# System: HFFs
# method: Cytotoxicity assay (CCK-8 cell viability)
# Format: cell-based, human
# condition.set: Homo sapiens; HFFs, 24 h, CCK-8
# Protocol: Cultures of human foreskin fibroblast (HFF; HFF-1 ATCC® SCRC-1041™), Madin–Darby bovine kidney (MDBK; ECACC) and mouse embryonic fibroblast (NIH/3T3; ATCC® CRL-1658™) cells were retrieved from −80 °C stock and cultured continuously at 37 °C under atmosphere 5% CO2 in our laboratory. The NIH/3T3 and HFFs cells were maintained in Dulbecco Modified Eagle’s Medium (DMEM; Gibco, Grand Island, NY, USA), while MDBK cell line grown in Minimum Essential Medium Eagle (MEM; Gibco). […]
value.type: EC50

# compound, EC50
rows = [
    ("CC(C)/N=c1\\cc2n(-c3ccc(Cl)cc3)c3ccccc3nc-2cc1Nc1ccc(Cl)cc1 [CF, clofazimine]", "> 100 µM"),
    ("O=C1C(O)=C([C@H]2CC[C@H](c3ccc(Cl)cc3)CC2)C(=O)c2ccccc21 [AV, atovaquone]", "> 100 µM"),
]

Now for the compound whose EC50 we want.
Query COC(=O)c1c(C)cc(OC(=O)c2c(C)cc(O)c(C=O)c2O)c(C)c1O [ATR, Atranorin] yields EC50 of 750 µM
